# Tested on: RPMI-8226
# testDetails: NCI tumour cell line growth inhibition, 48 h
Calls of active or inactive are those of the source. Cut-off read from the data, not from the text of the source: active = GI50 up to about 1.1 µM and inactive = higher.
Labels: 1 for active, 0 for inactive

• N/C(CSCCSC/C(N)=N/O)=N\O = 0
• O=C(N/N=C(COc1ccccc1Cl)\N=C\c1ccncc1)c1ccncc1 = 0
• CCOC(=O)c1c(Sc2ccc([N+](=O)[O-])cc2[N+](=O)[O-])nc2c3ccccc3ccn12 = 0
• CNC(=O)C1CCc2nnc(-c3ccccc3)n21 (stereo unspecified) = 0
• N=C(N)N/N=C\c1ccc(C2CCNCC2)cc1 = 0
• Cc1cc(S(=O)(=O)Nc2nc3cscc3c(=O)n2N)c(S)cc1Cl = 0
• O=[As](O)(O)c1ccc(Cc2ccc([As](=O)(O)O)cc2)cc1 = 1
• COC1=C(Br)C(O)C2(C=C1Br)CC(C(=O)NCCCCNC(=O)C1=NOC3(C=C(Br)C(OC)=C(Br)C3O)C1)=NO2 (stereo unspecified) = 0
• COc1ccc(/C=C2\CCC(C)/C(=C\c3ccc(OC)c(OC)c3)C2=O)cc1OC (stereo unspecified) = 0
• CCN(CC)C(=S)N/N=C/c1ccccn1 = 1
• COc1ccc(/N=N/c2ccc3oc(=O)c(C(=O)Nc4ccccc4)cc3c2)cc1 = 0

====

# System: SK-MEL-2
# testDetails: NCI tumour cell line growth inhibition, 48 h
Active and inactive are the calls of the source. Rule as the data show it: active = GI50 up to about 1.1 µM and inactive = higher.
Entries and their measured GI50 follow.
endpointName: GI50

• CC1(C)CCCCC1/C=C/C(CC(O)(C(F)(F)F)C(F)(F)F)=N\Nc1ccc([N+](=O)[O-])cc1[N+](=O)[O-] (centres undefined) = 3.18 µM (inactive)
• C[C@H]1[C@H](C)CC[C@]2(C(=O)OC3OC(CO)C(O)C(O)C3O)CC[C@]3(C)C(=CC[C@@H]4[C@@]5(C)C[C@@H](O)[C@@H]6OC(=O)c7cc(O)c(O)c(O)c7-c7c(cc(O)c(O)c7O)C(=O)OC[C@@]6(CO)[C@@H]5CC[C@]43C)[C@H]12 (some centres undefined) = > 100 µM (inactive)
• CC[C@@H]1C[C@@H]2CN3CCc4c([nH]c5ccc(OC)cc45)C(COC(=O)c4ccc(OC)c(OC)c4)(C2)C13 = > 10 µM (inactive)
• Cc1ccccc1-n1c(=S)[nH]c2c(sc(=O)n2-c2ccccc2C)c1=O = > 100 µM (inactive)
• COc1ccccc1-n1c(=O)n(C)c(=O)n1C(C)(C)C = > 100 µM (inactive)
• COc1ccc(C(C)c2cc3c(cc2O)OCO3)cc1 (centres undefined) = 14.9 µM (inactive)
• Cc1nc2c(=O)n(C)c(=O)n(C)c2o1 = > 100 µM (inactive)
• COC(=O)c1c(-c2cc(OC)c(OC)c(OC)c2)oc2ccccc2c1=O = > 100 µM (inactive)
• CC1C2C=CC1C(c1c3ccc(=O)c(O)c-3oc3c(O)c(O)ccc13)C2C(=O)O (centres undefined) = > 100 µM (inactive)

====

# Tested on: TK-10
# testDetails: NCI tumour cell line growth inhibition, 48 h
The source made the active and inactive calls. Rule as the data show it: active = GI50 up to about 1.1 µM and inactive = higher.
endpointName: GI50

- CC(Oc1ccccc1Cl)C(=O)NN1C(=O)CSC1c1ccc(Cl)cc1 (stereo not given): 25.8 µM (inactive)
- CCOC(=O)c1c(O)nc2cccc3c2c1-c1cccnc1S3: 44.7 µM (inactive)
- CO[C@H]1[C@@H](O)[C@H](O[C@@H]2C[C@H]3CC[C@@H]4[C@H](CC[C@]5(C)[C@@H](C6=CC(=O)OC6)CC[C@]45O)[C@@]3(C)[C@H](OC(C)=O)C2)O[C@@H](C)[C@H]1O: 1.17 µM (inactive)
- O=C1OC(c2ccccc2)N/C1=C\c1ccc2c(c1)OCO2 (stereo not given): > 100 µM (inactive)
- Oc1ccc(/C=N/CC2CCCN3CCCCC23)cc1 (stereo not given): 23.4 µM (inactive)
- CC1(C)OC(CCC#N)CN1C(=O)OCc1ccccc1 (stereo not given): > 100 µM (inactive)
- COc1c(Cl)cc(Cl)cc1S(=O)O: > 100 µM (inactive)
- CCOC(=O)C1=C(C)N(C)C23OC4(C(=O)OC)CC2c2ccccc2C1N3C4=O (stereo not given): > 100 µM (inactive)
- Oc1ccc2ccccc2c1/N=N/c1ccc(Br)cc1: 59.6 µM (inactive)
- O=CN1CCC23CC(O)CCC2C1Cc1cc(Oc2nnnn2-c2ccccc2)cc(O)c13 (stereo not given): > 100 µM (inactive)
